# assayed system: UniProt Q9NYK1
# Sequence (Q9NYK1 27-1049): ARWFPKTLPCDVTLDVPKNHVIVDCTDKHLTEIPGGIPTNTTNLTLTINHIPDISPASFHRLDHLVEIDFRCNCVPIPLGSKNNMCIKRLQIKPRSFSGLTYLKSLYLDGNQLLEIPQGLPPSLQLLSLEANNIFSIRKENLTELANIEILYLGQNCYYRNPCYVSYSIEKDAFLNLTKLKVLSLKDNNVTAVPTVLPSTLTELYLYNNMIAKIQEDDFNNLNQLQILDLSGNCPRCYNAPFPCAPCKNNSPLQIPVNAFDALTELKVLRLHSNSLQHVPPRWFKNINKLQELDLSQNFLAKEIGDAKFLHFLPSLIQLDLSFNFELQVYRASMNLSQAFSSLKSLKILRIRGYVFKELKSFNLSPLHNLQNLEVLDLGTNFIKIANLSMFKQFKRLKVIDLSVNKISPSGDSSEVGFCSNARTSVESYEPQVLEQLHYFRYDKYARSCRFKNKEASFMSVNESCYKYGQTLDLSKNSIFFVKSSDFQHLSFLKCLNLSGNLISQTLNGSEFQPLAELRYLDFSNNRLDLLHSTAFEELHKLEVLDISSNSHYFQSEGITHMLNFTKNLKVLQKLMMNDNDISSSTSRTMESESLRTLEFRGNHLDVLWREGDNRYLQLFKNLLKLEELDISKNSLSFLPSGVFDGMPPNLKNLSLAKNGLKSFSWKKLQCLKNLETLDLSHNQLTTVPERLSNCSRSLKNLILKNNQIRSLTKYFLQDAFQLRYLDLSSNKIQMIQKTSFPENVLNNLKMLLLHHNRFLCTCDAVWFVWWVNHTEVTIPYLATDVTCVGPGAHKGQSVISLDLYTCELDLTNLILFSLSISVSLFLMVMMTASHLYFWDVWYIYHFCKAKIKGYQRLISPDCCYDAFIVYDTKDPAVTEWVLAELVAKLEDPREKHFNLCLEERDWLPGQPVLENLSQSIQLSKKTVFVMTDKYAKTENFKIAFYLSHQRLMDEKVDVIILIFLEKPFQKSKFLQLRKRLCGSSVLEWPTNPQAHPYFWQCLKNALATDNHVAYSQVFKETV
# method description: TLR7 inhibition reporter assay (HEK-Blue cells, SEAP reporter, gardiquimod stimulation)
# Format: cell-based
# measurement setup: HEK-Blue cells overexpressing human TLR7, gardiquimod 7.5 μM
pIC50: −log10 of the molar value.

# compound, pIC50
data = [
    ("Cc1cc(-c2[nH]c3ccc(C4CCNCC4)cc3c2C2CC2)ccn1 [Example 88]", 7.92),
    ("COc1ccc(CN2CCC(c3ccc4[nH]c(-c5cc(C)nc(C)c5)c(C(C)C)c4c3)CC2)cn1 [Example 424]", 8.08),
    ("CCC(O)CN1CCC(c2ccc3[nH]c(-c4ccnc(C)c4)c(C(C)C)c3c2)CC1 (centres unmarked) [Example 664]", 7.99),
    ("COCCN(C)C(=O)CN1CCC(c2ccc3[nH]c(-c4cc(C)nc(C)c4)c(C(C)C)c3c2)CC1 [Example 254]", 8.05),
    ("Cc1cc(-c2[nH]c3ccc(C4CCN(C(=O)CN5CCCC5=O)CC4)cc3c2C(C)C)cc(C)n1 [Example 154]", 8.23),
]
